Test: inhibition of RSV-induced cytopathic effect – HEp-2 cells, primary 10 µM value included (AID 2391)
Settings: at 10 µM, active compounds read high
Screen size: about 310,000 compounds; about 410 (0.13%) were called active. Another 2% or so got no clear call; they are omitted. These entries were drawn from the full list. Potency and affinity values are given separately.
experimental readout: CPE inhibition (%)
Just the number in %, nothing appended.

Illustrative cases are given below, each with its answer.
compound	experimental readout	units	observed value
Cc1occc1C(=O)Nc1cc(C(C)(C)C)on1	CPE inhibition	%	-1.18
O=C(CNc1ccccc1)N/N=C/c1cn(-c2ccccc2)nc1-c1ccccc1	CPE inhibition	%	6.81
CC(C)NC(=O)CCNC(=O)c1ccc(F)cc1	CPE inhibition	%	0.45
CCOc1ccccc1CNC(=O)c1c([N+](=O)[O-])c(C)nn1C	CPE inhibition	%	0.22

Query block: Fill in CPE inhibition for record CCN(CC(=O)Nc1ccc(OC)cc1)C(=O)c1ccccc1Sc1ccccc1C#N
Result block: -1.42

Query block: Fill in CPE inhibition for record CC(C)[C@H](NC(=O)N1CCn2c1nc1ccccc12)C(=O)NCc1ccc(F)cc1
Result block: 7.05

Query block: Fill in CPE inhibition for record O=C(CNc1cccc(C(F)(F)F)c1)N/N=C/c1ccccc1C(=O)O
Result block: 1.07

Query block: Fill in CPE inhibition for record Cn1ncc(Br)c1C(=O)N1CCOCC1
Result block: 3.84

Query block: Fill in CPE inhibition for record O=C(c1cccc(N2C(=O)C3C4C=CC(C4)C3C2=O)c1)N1CCN(c2ccccc2F)CC1 (configuration not stated)
Result block: 1.69

Query block: Fill in CPE inhibition for record Cn1c2ccccc2c2nnc(SCc3ccc4nonc4c3)nc21
Result block: -0.67

Query block: Fill in CPE inhibition for record CC1=C(C(=O)OC(C)C)C2(O)C(=O)c3ccccc3C2(O)N1 (configuration not stated)
Result block: 0.34

###

List of CPE inhibition values.
Assay: inhibition of RSV-induced cytopathic effect – HEp-2 cells, primary 10 µM value included (AID 2391)
Settings: at 10 µM, active compounds read high
Screen size: about 310,000 compounds; about 410 (0.13%) were called active. Another 2% or so got no clear call; they are omitted. The list is a sample of the results. Results with a measured potency or affinity are listed apart.
Just the number in %, nothing appended.

smiles text	CPE inhibition (%)
COc1ccc2nc(NC(=O)c3ccccc3C(=O)O)sc2c1	1.92
O=C(/C=C/c1c(F)cccc1Cl)N1CCOCC1	0.12
Cc1nc2ccccc2nc1OCc1ccc([N+](=O)[O-])cc1	1.85

Query block: Fill in CPE inhibition for record COc1ccc2nc(NC(=O)c3ccccc3F)sc2c1
Result block: 3.79

Query block: Fill in CPE inhibition for record COc1cc(SC)ccc1C(=O)Nc1ccc2c(c1)OCCO2
Result block: 49.8

Query block: Fill in CPE inhibition for record O=C(c1ccco1)N1CCN(c2ccccc2F)CC1
Result block: 0.67

###

List of CPE inhibition values.
Test: inhibition of RSV-induced cytopathic effect – HEp-2 cells, primary 10 µM value included (AID 2391)
Conditions: at 10 µM, active compounds read high
In all, about 310,000 compounds went through this assay and about 410 (0.13%) were called active. Not shown: some 2% with an inconclusive outcome. Not all results are given here. Results with a measured potency or affinity are listed apart.
Just the number in %, nothing appended.

Illustrative cases are given below, each with its answer.
molecule	CPE inhibition / %
Cc1ccccc1NC(=O)COc1cccc2c1CCNC2=O	-2.82
Cn1c(=O)c2ccccc2n(CC(=O)N2CCCc3ccccc32)c1=O	12.6
Cc1cc(C)c(NC(=O)c2cccc(NC(=O)c3ccco3)c2)c(C)c1	2.64
Cc1cc(=O)[nH]c(NCc2ccc(Cl)cc2)n1	0.3

Query block: Fill in CPE inhibition for record CC(=O)Nc1ccc(NC(=O)C2CCC(N3C(=O)C4C5C=CC(C6CC56)C4C3=O)CC2)cc1 (stereo unspecified)
Result block: 1.77

Query block: Fill in CPE inhibition for record Nc1nc(N2CCCCC2)nc(N2CCCCC2)n1
Result block: 0.85

###

Experiment: inhibition of RSV-induced cytopathic effect – HEp-2 cells, primary 10 µM value included (AID 2391)
Conditions: at 10 µM, active compounds read high
The campaign covered roughly 310,000 compounds. About 410 (0.13%) were called active. About 2% were inconclusive and are not listed. The list is a sample of the results. Measured potencies and affinities stand elsewhere.
List of CPE inhibition values.
Just the number in %, nothing appended.

Illustrative cases are given below, each with its answer.
compound	CPE inhibition / %
CC(C)n1c(SCC(=O)N2CCCC2)nc2c1c(=O)n(C)c(=O)n2C	-0.46
Cc1cc(NC(=O)c2cc3ccccc3o2)ccc1NC(=O)c1ccccc1	5.86
O=C(Nc1ccc(NC(=O)c2cc3ccccc3o2)cc1)c1ccc2c(c1)OCCO2	6.03
COc1ccc(Nc2ccccc2C(=O)O)cc1	-0.36
COCCN(C(=O)CSc1nnc(-c2ccc(Cl)cc2)o1)c1c(N)n(CC(C)C)c(=O)[nH]c1=O	2.35
COc1cc2c(cc1NC(=O)Nc1ccc(C)cc1)oc1ccccc12	33
O=C(O)c1ccccc1Nc1ccccc1	2.02
CN1c2ccccc2C(C)(C)C12CC(CCl)=NO2 (stereo not drawn)	0.62

Query block: Fill in CPE inhibition for record Cc1cc(-n2c(C)cc(C(=O)CN3C(=O)NC4(CCCCC4C)C3=O)c2C)no1 (stereo not drawn)
Result block: 1.72

Query block: Fill in CPE inhibition for record O=C1CCC([N+](=O)[O-])C(c2ccc(Cl)c([N+](=O)[O-])c2)N1 (stereo not drawn)
Result block: -2.01

Query block: Fill in CPE inhibition for record COc1ccccc1CNC(=O)c1ccc(CS(=O)Cc2cccc(Cl)c2)o1 (stereo not drawn)
Result block: 4.42

Query block: Fill in CPE inhibition for record Cc1cc(C)cc(NC(=O)CSc2nc3ccccc3nc2N2CCCCC2)c1
Result block: -0.51

Query block: Fill in CPE inhibition for record CC1CN(C(=O)/C=C/c2ccc(SC(F)F)cc2)CC(C)O1 (stereo not drawn)
Result block: 1.82

Query block: Fill in CPE inhibition for record Cc1ccccc1N(C(=O)CNC(=O)c1ccco1)C(C(=O)NC1CCCCC1)c1ccncc1 (stereo not drawn)
Result block: 0.97

Query block: Fill in CPE inhibition for record COc1ccc(NC(=O)CSc2nc3ccccc3nc2N2CCCC2)cc1
Result block: 5.07

Query block: Fill in CPE inhibition for record O=C(O)c1cc([N+](=O)[O-])ccc1Nc1ccccc1
Result block: 2.12

Query block: Fill in CPE inhibition for record Cc1occc1-c1nnc(SCC(N)=O)n1Cc1ccccc1
Result block: 1

###

Test: inhibition of RSV-induced cytopathic effect – HEp-2 cells, primary 10 µM value included (AID 2391)
Conditions: at 10 µM, active compounds read high
Screen size: about 310,000 compounds; about 410 (0.13%) were called active. Another 2% or so got no clear call; they are omitted. A selection follows. Entries with a potency or affinity are not part of this list.
List of CPE inhibition values.
Just the number in %, nothing appended.

Illustrative cases are given below, each with its answer.
molecule	CPE inhibition [%]
Cc1cc(C)cc(NC(=O)C2CCCN2S(=O)(=O)c2cccc3cccnc23)c1 (stereo not given)	58.5
CN(C)/C=C/c1onc(-c2c(Cl)cccc2Cl)c1C#N	1.69
CCCOc1ccccc1C1NC(=O)NC(C)=C1C(=O)OCCOCC (stereo not given)	-0.41
COC(=O)[C@@H]1[C@@H](C)N(Cc2ccccc2)C(=O)N[C@H]1c1cccc(C(F)(F)F)c1	3.75

Please look at the following molecule next.
Query block: Fill in CPE inhibition for record COc1cc(C2C(C#N)=C(N)Oc3c2oc(CO)cc3=O)ccc1OC(C)C (stereo not given)
Result block: 0.67

###

Experiment: inhibition of RSV-induced cytopathic effect – HEp-2 cells, primary 10 µM value included (AID 2391)
Conditions: at 10 µM, active compounds read high
The whole screen tested about 310,000 compounds, of which about 410 (0.13%) were called active. About 2% were inconclusive and are not listed. These entries were drawn from the full list. Potency and affinity values are given separately.
experimental readout: CPE inhibition (%)
Just the number in %, nothing appended.

Illustrative cases are given below, each with its answer.
compound	CPE inhibition [%]
CCC(Sc1nc2ccccc2c2nc3ccccc3n12)C(=O)NCc1ccco1 (stereo unspecified)	-0.18
Cn1c(SCC#N)nc2ccccc2c1=O	2.04
CCn1c(SCC#N)nc2ccccc2c1=O	1.07
CC(Sc1nnc(CNC(=O)c2ccco2)n1C)C(=O)Nc1nccs1 (stereo unspecified)	-0.02
O=C(CSc1nc2ccccc2n1CC(=O)NCc1ccccc1)NCc1ccco1	-0.09

Query block: Fill in CPE inhibition for record COc1cc(-c2nc3c(c(C)nn3-c3ccccc3)c3cc(OC)c(OC)cc23)ccc1O
Result block: 57.5

Taken from PubChem BioAssay AID2391.
